Reference source: ChEMBL document CHEMBL4513216

Assay: Toxicity liver stage against HepG2, at 10uM
Assay type: cell-based
Parameters: test concentration 10 uM, cell line HepG2-A16-CD81EGFP
Conditions: human, HepG2-A16-CD81EGFP cells; read-out: INHIBITION
Endpoint Label: cytotoxicity at 10 µM (%)
Answers are plain numbers, in %.

Worked set:
{"columns": ["Compound", "cytotoxicity at 10 µM / %"],
 "data": [
  ["CCc1ccc(C(=O)N2CCC3(CCC(=O)N(CCN(C)C)C3)CC2)[nH]1", 5.96],
  ["O=c1n(Cc2ccccc2F)nc2ncccn12", -4.49],
  ["CC(C)NCc1cc2n(n1)CCN(C1CCCCC1)C2", -8.9]
]}

Lab note: each compound below needs its cytotoxicity at 10 µM filled in.
1. CN(c1ccc(OCc2cnc(Cl)s2)cc1)S(C)(=O)=O
2. CC(C)n1c(=O)c2ccccc2n(CCN2CCCCC2)c1=O
3. COCc1ccc(C(=O)N2CCC(c3cc4nccnc4[nH]3)CC2)cc1
4. CN1CCCc2cc(-c3cncn3CC(=O)NC(C)(C)C)ccc21
5. CN(Cc1cccnc1)C[C@H]1OC[C@@H]2CCN(c3ncccn3)C[C@@H]21

Ans:
1: 0.867; 2: -16.6; 3: -39; 4: -28.9; 5: -108

----------
Experiment: Toxicity liver stage against HepG2, at 10uM
Type: cell-based
Design: test concentration 10 uM, cell line HepG2-A16-CD81EGFP
Conditions: human, HepG2-A16-CD81EGFP cells; read-out: INHIBITION
Endpoint Label: cytotoxicity at 10 µM (%)
Numbers only, in %.

Worked set:
{"columns": ["Molecule", "cytotoxicity at 10 µM [%]"],
 "data": [
  ["Cn1nccc1-c1ncc2c(c1C(=O)O)CCN(Cc1cccnc1)C2", 8.07],
  ["O=C(NCC(=O)N1CCCC1Cc1cccc(F)c1)C1CCCC1 (centres undefined)", -18]
]}

Lab note: each molecule below needs its cytotoxicity at 10 µM filled in.
1. O=C(c1cc(COc2ccc3c(c2)OCO3)[nH]n1)N1CC=CC1CO (centres undefined)
2. O=C(Cc1ccccn1)N1CCc2ncnc(N3CCCC3)c2CC1

Ans:
1. -6.49
2. -2.13

----------
Test: Toxicity liver stage against HepG2, at 10uM
Type: cell-based
Set-up: test concentration 10 uM, cell line HepG2-A16-CD81EGFP
Settings: human, HepG2-A16-CD81EGFP cells; read-out: INHIBITION
Endpoint Label: cytotoxicity at 10 µM (%)
Give bare numbers, in %.

Lab note: each molecule below needs its cytotoxicity at 10 µM filled in.
1. COc1nc(C)ccc1CNC(=O)NC(c1ncc(C)s1)C1CC1 (stereo unspecified)
2. COc1cccc(CC(=O)N2CCC3(CC2)OCCCC3O)c1OC (stereo unspecified)

Ans:
1. -2.3
2. -5.7

Lab note: each molecule below needs its cytotoxicity at 10 µM filled in.
1. COCC(=O)Nc1ccc(-c2noc([C@@H]3CCCN3)n2)cn1
2. COCc1cn([C@@H]2c3ccccc3C3(CCNCC3)[C@H]2O)nn1
3. c1cnc2c(c1)cc([C@@H]1CCCO1)n2CCN1CCOCC1
4. CN(C)S(=O)(=O)N1CC(c2nc(-c3ccsc3)no2)C1
5. Cn1cc(CN2CC[C@H]3OCC[C@@H](C(=O)Nc4cnccn4)[C@@H]3C2)cn1

Ans:
1. -1.16
2. 1.2
3. -19.7
4. -6.6
5. 4.12

Lab note: each molecule below needs its cytotoxicity at 10 µM filled in.
1. COc1ccc(C2SCC(=O)Nc3n[nH]cc32)c(OC)c1OC (stereo unspecified)
2. O=C(CCNC(=O)c1ccoc1)Nc1cc(F)ccc1F
3. CCS(=O)(=O)N1CC[C@H](OC)[C@@H]1Cc1ccncc1
4. Cn1ncnc1-c1ccnc(N2CCC(C(O)c3cccs3)CC2)n1 (stereo unspecified)

Ans:
1: 4.68; 2: -12.8; 3: 5.43; 4: -39.2
